Data credit: patent US20220144922A1

- target-or-test-system: RSV F protein of subtype A strain A2, on virus (respiratory syncytial virus subtype A …, UniProt P03420 26-574)
- protocol-details: cell-based or functional assay
Below is a list of entries, each paired with its recorded Neut IC50 (ug/ml) subtype A value.
value-kind: Neut IC50 (ug/ml) subtype A (µg/mL)

* ADI-15617 (antibody, V domains shown, IgG; also called Antibody Number 182) VH: EVQLVESGGGLVQPGGSLRISCAASGFSISSHAVSWVRQAPGKGLEWVSVISGSGGDTHSVVQGRGSGTYYADSVKGRFTISRDNVRNTVYLQMNSLRVEDTAVYYCAKDDPTLFWSGSGYYGMDVWGQGTTVTVSS VL: DIRVTQSPSSLSASVGDRVTITCQASQGISDSLNWYQQKPGKAPKLLIYGASKLEPGVSSRFSGRGSGRDFTFTISSLQPEDIGTYYCQQYDNLPLTFGPGTKLEIK | 0.022
* ADI-15557 (antibody, V domains shown, IgG) VH: QVQLVQSGAEVKRPGSSVKVSCKASGGTFSSFAINWVRQAPGQGLEWMGGLIPIFGTPNNAQKFQGRVTITADESTSTAYMELSSLRSEDTAVYYCASLRYFDWQPGGSYWFDPWGQGTLVTVSS VL: QPGLTQPPSVSVAPGKTARIACGGDNIGTKGVHWYQQKPGQAPVLVIYYDSDRPSGIPERFSGSNSGNTATLTISGVEAGDEADYYCQVWDTIDDHKDGLFGGGTKLTVL | 0.041
* ADI-15627 (antibody, V domains shown, IgG; also called Antibody Number 192) VH: EVQLVESGGGVVQPGRSLRLSCAASGFTFSDYAMHWVRQAPGKGLEWVAVIWYDGGNKYYADSAKGRFTISRDNSKNTLYLQMNSLRAEDTAVYYCAKDRGSIWNVGDGMDVWGQGTTVTVSS VL: QPVLTQPPSVSVAPGQTARVTCGGNNIGAKSVHWYQQKPGQAPVLVVDDDTDRPSGIPERFSGSNSGNTATLTISRVEAGDEADYYCQVWDASIGPLYVFGTGTKLTVL | 2.17
* ADI-15566 (antibody, V domains shown, IgG) VH: QVQLVQSGAEVKKPGASVKVSCKASGFTFTNYGISWVRQAPGRGLEWMGWISAYNGNTEYAQKLQDRLTMTTDTSTNTAYMELRSLRSDDTALYYCARESGVAAAATLLYWGQGTLVTVSS VL: ETTLTQSPLSLPVTLGQPASISCRSSQSLVYSDGNTYLSWFQQRPGQSPRRLIYKVSNRDSGVPDRFSGSGSGADFTLKISRVEAEDVGVYYCMQGIYWPRTFGQGTKVDIK | 0.01
* ADI-15597 (antibody, V domains shown, IgG) VH: QVQLVQSGGGLVKPGGSLRLSCAGSGFTFSSYTLNWVRQAPGKGLEWVSSISSSSTYIYYADSVKGRFTISRDNAKNSLHLQMNSLRAEDTAVYYCARADYDRSVYHLNWFDPWGQGTLVTVSS VL: QSVLTQPPSVSGAPGQRVTISCTGSSSNIGAGYDVHWYQQLPGAAPKLLIYGNTNRPSGVPDRFSGSKSGTSASLAITGLQADDEADYYCQSYDSSLSGTWVFGGGTKLTVL | 0.163
* ADI-15600 (antibody, V domains shown, IgG; also called Antibody Number 166) VH: EVQLVESGGGLIQPGGSLRLSCAVSGFSVSSNYISWVRQPPGKGLEWVSVSYSSGVTDYADSVKGRFTTSRDNSKNTLYLQMNSLRGEDTAVYYCARELVPNFYESHGYFSVWGQGTLVTVSS VL: DIVMTQSPGTLSLSPGERATLSCRASQRVDSSYLAWYQQKPGQAPRLLIYGGSSRATGIPDRFSGSGSGTDFTLTISRLEPEDFALYYCQQYGFSQTFGQGTKVEIK | 1.31
* ADI-15579 (antibody, V domains shown) VH: EVQLVESGGGLVQPGRSLRLSCAAFGFTFDDYAMHWVRQAPGKGLEWVSGISWNSGFIGYADSVKGRFTISRDNAKNSLSLQMNSLRTEDTALYYCAKTDGAVAVDGPFDYWGQGTLVTVSS VL: EIVLTQSPSSLSASVGDRVTITCRASQSISGYLSWYQQKPGKAPKLLIHSTSSLQSGVPSRFSGSGSGTDFTLTITSLQPEDFATYYCQQSYIAPPTFGQGTKVEIK | 8.02
* ADI-15595 (antibody, V domains shown) VH: EVQLVESGPTLVKPTQTLTLTCTFSGFSLTTIGVGVGWIRQPPGKALEFLGIVYWDDDKRYSPSLKSRLTITKDTSKNQVVLTMTTLAPEDTGTYYCTYARYSSALFGGYYFHSWGQGTLVTVSS VL: QSVLTQPPSVSVAPGQTAKITCGGNDIGSRSVHWYQQKPGQAPVLVVYDNSDRPSGIPERFSGSNSGDTATLTISRVEAGDEAVYYCQVWESSGDHPRIFGGGTKLTVL | 0.02
* ADI-15641 (antibody, V domains shown, IgG; also called Antibody Number 205) VH: QVQLVESGGGVVQPGRSLRVSCAASGFDFSNYAMHWVRQAPGKGLEWVALISYDGNNKVYADSVKGRFTVSRDNSKNTLYLQMNSLRPEDTAVIYCAKDGYLAPDFWGQGTLVTVSS VL: QSVLTQPASVSGSPGQSIIISCTGTSSDVGEYDYVSWYQHHPHKAPKLIIYEVSNRPSGVSNRFSGSKSGNTASLTISGLQAEDEADYYCSSYTSSSGQAFGTGTKVTVL | 0.184
